- testedSystem: CSNK2A1 (Homo sapiens)
- Construct: purchased in-house (home-made panel, SGC-style construct names)
- Sequence (P68400 whole entry): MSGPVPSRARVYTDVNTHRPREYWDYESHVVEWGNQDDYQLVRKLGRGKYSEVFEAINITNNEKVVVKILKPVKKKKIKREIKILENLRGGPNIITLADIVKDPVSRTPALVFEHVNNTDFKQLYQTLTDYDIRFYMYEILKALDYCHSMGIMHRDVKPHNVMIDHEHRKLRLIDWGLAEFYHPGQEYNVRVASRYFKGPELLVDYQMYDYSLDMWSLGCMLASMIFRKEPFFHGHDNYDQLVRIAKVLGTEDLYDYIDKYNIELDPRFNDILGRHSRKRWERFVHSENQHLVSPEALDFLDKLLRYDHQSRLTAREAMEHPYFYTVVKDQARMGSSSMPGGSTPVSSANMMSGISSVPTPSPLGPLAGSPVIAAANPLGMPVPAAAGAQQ
- runDescription: DSF thermal shift, kinase panel
- Type: binding
- runConditions: DSF, 10 μM compound; read-out: ΔTm
# ΔTm at 10 µM values compiled below

# smilesRepresentation, ΔTm at 10 µM
rows = [
    ("Cc1ccc(Nc2nsnc(Nc3ccc4c(c3)CS(=O)(=O)C4)c2=O)cc1O", "-0.6 °C"),
    ("Cc1ccc(Nc2nsnc(Nc3cccc(C(N)=O)c3)c2=O)cc1O", "-0.9 °C"),
    ("CNC(=O)c1ccccc1Nc1nsnc(Nc2ccc(N3CCOCC3)cc2)c1=O", "-0.4 °C"),
    ("CNC(=O)c1ccccc1Nc1nsnc(Nc2cccc(CS(C)(=O)=O)c2)c1=O", "-0.4 °C"),
]

* * *

# ΔTm at 10 µM values compiled below
- testedSystem: EPHA2A (Homo sapiens, UniProt P29317)
- Construct: purchased in-house (home-made panel, SGC-style construct names)
- Sequence (P29317 24-976): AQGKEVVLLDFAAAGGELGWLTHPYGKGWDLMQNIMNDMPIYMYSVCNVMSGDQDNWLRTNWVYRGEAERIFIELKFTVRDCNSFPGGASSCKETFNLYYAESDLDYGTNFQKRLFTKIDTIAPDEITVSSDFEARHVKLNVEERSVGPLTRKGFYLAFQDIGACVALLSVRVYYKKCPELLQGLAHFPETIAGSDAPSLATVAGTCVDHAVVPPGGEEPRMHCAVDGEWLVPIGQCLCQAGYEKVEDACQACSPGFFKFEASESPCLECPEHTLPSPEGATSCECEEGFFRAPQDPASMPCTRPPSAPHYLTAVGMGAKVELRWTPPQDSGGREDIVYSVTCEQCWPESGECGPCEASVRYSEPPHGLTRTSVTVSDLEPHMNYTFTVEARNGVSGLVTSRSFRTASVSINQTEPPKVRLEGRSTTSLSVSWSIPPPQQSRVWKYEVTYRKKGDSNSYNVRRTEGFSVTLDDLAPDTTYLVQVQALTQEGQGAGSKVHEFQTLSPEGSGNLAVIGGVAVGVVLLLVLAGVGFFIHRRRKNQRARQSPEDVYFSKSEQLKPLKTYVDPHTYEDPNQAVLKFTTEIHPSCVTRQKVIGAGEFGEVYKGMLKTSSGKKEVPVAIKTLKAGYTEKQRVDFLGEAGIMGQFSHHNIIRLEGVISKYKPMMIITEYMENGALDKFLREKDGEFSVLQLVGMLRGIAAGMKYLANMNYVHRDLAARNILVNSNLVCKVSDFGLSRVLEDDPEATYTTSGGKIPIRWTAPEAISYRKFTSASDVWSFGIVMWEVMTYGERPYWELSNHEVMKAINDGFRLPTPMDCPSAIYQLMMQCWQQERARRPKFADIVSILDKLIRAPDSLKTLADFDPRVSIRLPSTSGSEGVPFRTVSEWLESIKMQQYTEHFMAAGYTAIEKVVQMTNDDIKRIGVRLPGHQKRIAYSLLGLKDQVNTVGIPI
- runDescription: DSF thermal shift, kinase panel
- Format: binding
- runConditions: 10 μM compound
quantity: ΔTm at 10 µM (°C)

# smilesRepresentation, recordedValue
rows = [
    ("CNC(=O)c1ccccc1Nc1nsnc(Nc2cccc(CS(C)(=O)=O)c2)c1=O", -0.1),
    ("Cc1ccc(Nc2nsnc(Nc3cccc(C(N)=O)c3)c2=O)cc1O", 0.2),
    ("CNC(=O)c1ccccc1Nc1nsnc(Nc2ccc(N3CCOCC3)cc2)c1=O", 0),
    ("Cc1ccc(Nc2nsnc(Nc3ccc4c(c3)CS(=O)(=O)C4)c2=O)cc1O", 0.8),
    ("Cc1ccc(Nc2nsnc(Nc3ccc(C(N)=O)cc3)c2=O)cc1O", 0.5),
]

* * *

# ΔTm at 10 µM values compiled below
- testedSystem: BMXA (Homo sapiens, UniProt P51813)
- Construct: purchased in-house (home-made panel, SGC-style construct names)
- Sequence (P51813 whole entry): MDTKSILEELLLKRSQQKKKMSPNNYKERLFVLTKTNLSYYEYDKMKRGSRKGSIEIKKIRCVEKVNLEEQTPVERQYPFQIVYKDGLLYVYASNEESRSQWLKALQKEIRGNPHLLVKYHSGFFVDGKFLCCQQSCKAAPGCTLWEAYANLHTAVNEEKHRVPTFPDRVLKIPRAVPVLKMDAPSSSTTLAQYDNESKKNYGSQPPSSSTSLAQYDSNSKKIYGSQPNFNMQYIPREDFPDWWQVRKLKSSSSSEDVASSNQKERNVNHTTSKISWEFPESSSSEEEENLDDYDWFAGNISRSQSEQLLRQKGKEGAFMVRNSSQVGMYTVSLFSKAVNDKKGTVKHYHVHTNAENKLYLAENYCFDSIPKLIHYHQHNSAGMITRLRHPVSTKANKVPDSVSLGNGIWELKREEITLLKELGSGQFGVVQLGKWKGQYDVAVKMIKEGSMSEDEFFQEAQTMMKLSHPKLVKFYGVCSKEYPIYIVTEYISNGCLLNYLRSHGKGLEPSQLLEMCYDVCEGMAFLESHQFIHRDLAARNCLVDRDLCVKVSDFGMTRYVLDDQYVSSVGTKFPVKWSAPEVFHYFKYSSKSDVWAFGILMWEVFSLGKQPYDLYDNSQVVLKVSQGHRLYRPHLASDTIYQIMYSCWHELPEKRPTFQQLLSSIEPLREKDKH
- runDescription: DSF thermal shift, kinase panel
- Type: binding
- runConditions: 10 μM compound
quantity: ΔTm at 10 µM

# smilesRepresentation, recordedValue
data = [
    ("Cc1ccc(Nc2nsnc(Nc3ccc4c(c3)CS(=O)(=O)C4)c2=O)cc1O", "0 °C"),
    ("Cc1ccc(Nc2nsnc(Nc3ccc(C(N)=O)cc3)c2=O)cc1O", "-0.1 °C"),
    ("CNC(=O)c1ccccc1Nc1nsnc(Nc2ccc(N3CCOCC3)cc2)c1=O", "0 °C"),
    ("CNC(=O)c1ccccc1Nc1nsnc(Nc2cccc(CS(C)(=O)=O)c2)c1=O", "0 °C"),
    ("Cc1ccc(Nc2nsnc(Nc3cccc(C(N)=O)c3)c2=O)cc1O", "0.1 °C"),
]

* * *

- testedSystem: PIM1A (Homo sapiens, UniProt P11309)
- Construct: purchased in-house (home-made panel, SGC-style construct names)
- Sequence (P11309 whole entry): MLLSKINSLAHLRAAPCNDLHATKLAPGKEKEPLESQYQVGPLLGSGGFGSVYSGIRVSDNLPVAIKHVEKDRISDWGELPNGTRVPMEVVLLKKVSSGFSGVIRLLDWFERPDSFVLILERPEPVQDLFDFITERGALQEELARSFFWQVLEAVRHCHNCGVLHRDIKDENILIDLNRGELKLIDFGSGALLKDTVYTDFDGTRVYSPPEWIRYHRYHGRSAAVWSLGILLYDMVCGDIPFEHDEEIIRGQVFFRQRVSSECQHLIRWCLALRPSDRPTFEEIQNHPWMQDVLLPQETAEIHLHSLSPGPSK
- runDescription: DSF thermal shift, kinase panel
- Assay type: binding
- runConditions: 10 μM compound
Short version: ΔTm at 10 µM at least 1 °C is class 1, less is class 0.

# compound, answerLabel
measured = [
    ("Cc1ccc(Nc2nsnc(Nc3ccc4c(c3)CS(=O)(=O)C4)c2=O)cc1O [Compound 3]", "class 1"),
    ("CNC(=O)c1ccccc1Nc1nsnc(Nc2ccc(N3CCOCC3)cc2)c1=O [Compound 5]", "class 0"),
    ("CNC(=O)c1ccccc1Nc1nsnc(Nc2cccc(CS(C)(=O)=O)c2)c1=O [Compound 4]", "class 0"),
    ("Cc1ccc(Nc2nsnc(Nc3ccc(C(N)=O)cc3)c2=O)cc1O [Compound 2]", "class 1"),
]

* * *

- testedSystem: AAK1 (Homo sapiens, UniProt Q2M2I8)
- Construct: purchased in-house (home-made panel, SGC-style construct names)
- Sequence (Q2M2I8 whole entry): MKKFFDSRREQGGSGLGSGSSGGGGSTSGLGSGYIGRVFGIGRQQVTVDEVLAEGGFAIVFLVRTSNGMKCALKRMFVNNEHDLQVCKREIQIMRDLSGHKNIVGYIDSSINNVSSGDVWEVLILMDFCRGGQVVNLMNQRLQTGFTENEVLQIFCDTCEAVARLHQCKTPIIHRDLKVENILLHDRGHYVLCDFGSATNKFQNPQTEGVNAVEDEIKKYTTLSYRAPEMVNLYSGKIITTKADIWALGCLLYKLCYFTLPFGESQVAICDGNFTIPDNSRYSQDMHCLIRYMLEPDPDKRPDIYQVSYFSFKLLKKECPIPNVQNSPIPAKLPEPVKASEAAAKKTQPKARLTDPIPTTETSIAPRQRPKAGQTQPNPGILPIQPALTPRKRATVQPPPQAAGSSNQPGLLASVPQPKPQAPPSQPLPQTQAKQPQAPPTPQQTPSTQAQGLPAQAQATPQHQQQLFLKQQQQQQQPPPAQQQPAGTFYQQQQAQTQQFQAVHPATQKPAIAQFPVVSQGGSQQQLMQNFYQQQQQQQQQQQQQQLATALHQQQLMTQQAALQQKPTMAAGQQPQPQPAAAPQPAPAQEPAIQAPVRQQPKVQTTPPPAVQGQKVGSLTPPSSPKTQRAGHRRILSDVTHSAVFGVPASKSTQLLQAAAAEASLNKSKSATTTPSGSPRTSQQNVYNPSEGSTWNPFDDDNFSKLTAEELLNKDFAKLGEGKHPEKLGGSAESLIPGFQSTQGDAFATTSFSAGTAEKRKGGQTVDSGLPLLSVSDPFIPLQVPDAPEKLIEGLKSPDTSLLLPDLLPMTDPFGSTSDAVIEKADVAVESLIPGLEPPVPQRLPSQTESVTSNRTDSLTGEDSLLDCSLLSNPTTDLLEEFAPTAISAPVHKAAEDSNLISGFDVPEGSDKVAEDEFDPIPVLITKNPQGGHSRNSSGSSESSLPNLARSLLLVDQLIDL
- runDescription: DSF thermal shift, kinase panel
- Format: binding
- runConditions: 10 μM compound
# ΔTm at 10 µM values compiled below

# smilesRepresentation, ΔTm at 10 µM [°C]
rows = [
    ("Cc1ccc(Nc2nsnc(Nc3ccc(C(N)=O)cc3)c2=O)cc1O", 1.5),
    ("CNC(=O)c1ccccc1Nc1nsnc(Nc2cccc(CS(C)(=O)=O)c2)c1=O", -0.4),
    ("Cc1ccc(Nc2nsnc(Nc3ccc4c(c3)CS(=O)(=O)C4)c2=O)cc1O", 0.6),
    ("Cc1ccc(Nc2nsnc(Nc3cccc(C(N)=O)c3)c2=O)cc1O", 0.6),
    ("CNC(=O)c1ccccc1Nc1nsnc(Nc2ccc(N3CCOCC3)cc2)c1=O", -0.4),
]

* * *

- testedSystem: human CaMKK2 (residues 50–588) (Homo sapiens)
- Construct: recombinant bacterial expressed human CaMKK2 (residues 50–588); made in house
- runDescription: CaMKK2 enzyme assay ([γ-32P]-ATP, CaMKKtide peptide);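 note: radiometric kinase assay: phosphate transfer from [γ-32P]-ATP to synthetic peptide substrate, 10 min reaction at 30 °C, peptide-bound radioactivity captured on P81 paper and measured by scintillation counting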
- Type: biochemical
- runConditions: [drug] 100 μM
# Enzyme assay raw data (0 μM drug = 100.00) values compiled below
quantity: Enzyme assay raw data (0 μM drug = 100.00)

# compound, testedSystem, recordedValue
data = [
    ("Cc1ccc(Nc2nsnc(Nc3ccc(C(=O)O)cc3)c2=O)cc1O [Compound 12]", "human CaMKK2 (residues 50–588) (Homo sapiens)", 0.83),
    ("O=C(O)c1ccc2c3c1cccc3c(=O)n1c3ccccc3nc21 [STO-609, reference compound]", "human CaMKK2 (residues 50–588) (Homo sapiens)", 0.07),
    ("Cc1ccc(Nc2nsnc(Nc3ccc(-c4ncc[nH]4)cc3)c2=O)cc1O [Compound 11]", "human CaMKK2 (residues 50–588) (Homo sapiens)", 1.23),
    ("Cc1ccc(Nc2nsnc(Nc3ccccc3C(N)=O)c2=O)cc1O [Compound 10]", "human CaMKK2 (residues 50–588) (Homo sapiens)", 2.19),
]

* * *

- testedSystem: SRPK1A (Homo sapiens)
- Construct: purchased in-house (home-made panel, SGC-style construct names)
- runDescription: DSF thermal shift, kinase panel
- Format: binding
- runConditions: 10 μM compound
quantity: ΔTm at 10 µM (°C)

# molecule, recordedValue
rows = [
    ("Cc1ccc(Nc2nsnc(Nc3ccc4c(c3)CS(=O)(=O)C4)c2=O)cc1O [Compound 3]", 0),
    ("Cc1ccc(Nc2nsnc(Nc3ccc(C(N)=O)cc3)c2=O)cc1O [Compound 2]", 1.8),
    ("Cc1ccc(Nc2nsnc(Nc3cccc(C(N)=O)c3)c2=O)cc1O [Compound 1]", 0),
    ("CNC(=O)c1ccccc1Nc1nsnc(Nc2cccc(CS(C)(=O)=O)c2)c1=O [Compound 4]", 0),
    ("CNC(=O)c1ccccc1Nc1nsnc(Nc2ccc(N3CCOCC3)cc2)c1=O [Compound 5]", 0),
]

* * *

- testedSystem: SLKA (Homo sapiens)
- Construct: purchased in-house (home-made panel, SGC-style construct names)
- Sequence (Q9H2G2 whole entry): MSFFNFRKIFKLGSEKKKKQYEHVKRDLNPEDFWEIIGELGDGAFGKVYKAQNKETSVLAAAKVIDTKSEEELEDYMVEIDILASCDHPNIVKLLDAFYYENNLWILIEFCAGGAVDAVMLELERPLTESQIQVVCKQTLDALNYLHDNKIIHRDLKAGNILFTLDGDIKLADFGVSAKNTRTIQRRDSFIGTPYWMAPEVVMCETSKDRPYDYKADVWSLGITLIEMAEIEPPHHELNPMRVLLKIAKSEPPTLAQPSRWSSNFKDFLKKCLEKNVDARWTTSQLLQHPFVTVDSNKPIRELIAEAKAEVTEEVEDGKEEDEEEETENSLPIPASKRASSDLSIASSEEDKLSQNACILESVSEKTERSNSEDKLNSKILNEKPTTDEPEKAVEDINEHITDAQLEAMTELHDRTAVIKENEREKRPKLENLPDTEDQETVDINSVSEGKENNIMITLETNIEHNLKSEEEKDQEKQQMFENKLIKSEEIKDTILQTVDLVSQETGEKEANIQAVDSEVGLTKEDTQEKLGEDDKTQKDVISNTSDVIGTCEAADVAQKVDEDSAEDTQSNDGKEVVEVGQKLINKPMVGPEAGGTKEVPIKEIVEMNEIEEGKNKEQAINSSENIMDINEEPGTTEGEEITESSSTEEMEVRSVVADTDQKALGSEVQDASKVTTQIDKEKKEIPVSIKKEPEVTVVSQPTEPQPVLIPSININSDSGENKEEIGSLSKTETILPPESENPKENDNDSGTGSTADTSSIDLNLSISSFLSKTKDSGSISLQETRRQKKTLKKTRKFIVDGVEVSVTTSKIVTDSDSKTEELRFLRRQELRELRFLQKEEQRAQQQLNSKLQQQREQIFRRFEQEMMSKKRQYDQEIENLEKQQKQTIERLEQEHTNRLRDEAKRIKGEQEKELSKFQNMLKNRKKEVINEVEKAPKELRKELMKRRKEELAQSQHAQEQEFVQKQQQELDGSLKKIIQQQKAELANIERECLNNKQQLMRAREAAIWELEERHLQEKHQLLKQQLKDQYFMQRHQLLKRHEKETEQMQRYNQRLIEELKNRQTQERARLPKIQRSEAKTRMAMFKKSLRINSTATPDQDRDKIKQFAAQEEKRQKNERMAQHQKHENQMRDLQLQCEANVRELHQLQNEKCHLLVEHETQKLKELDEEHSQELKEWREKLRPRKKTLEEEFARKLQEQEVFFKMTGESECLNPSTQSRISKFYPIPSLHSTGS
- runDescription: DSF thermal shift, kinase panel
- Assay type: binding
- runConditions: 10 μM compound
# ΔTm at 10 µM values compiled below
quantity: ΔTm at 10 µM (°C)

# compound, recordedValue
records = [
    ("CNC(=O)c1ccccc1Nc1nsnc(Nc2ccc(N3CCOCC3)cc2)c1=O [Compound 5]", -0.7),
    ("Cc1ccc(Nc2nsnc(Nc3ccc(C(N)=O)cc3)c2=O)cc1O [Compound 2]", -0.1),
    ("CNC(=O)c1ccccc1Nc1nsnc(Nc2cccc(CS(C)(=O)=O)c2)c1=O [Compound 4]", -0.8),
    ("Cc1ccc(Nc2nsnc(Nc3ccc4c(c3)CS(=O)(=O)C4)c2=O)cc1O [Compound 3]", -0.2),
    ("Cc1ccc(Nc2nsnc(Nc3cccc(C(N)=O)c3)c2=O)cc1O [Compound 1]", -0.6),
]

* * *

- testedSystem: MAPK14B (Homo sapiens)
- Construct: purchased in-house (home-made panel, SGC-style construct names)
- Sequence (Q16539 whole entry): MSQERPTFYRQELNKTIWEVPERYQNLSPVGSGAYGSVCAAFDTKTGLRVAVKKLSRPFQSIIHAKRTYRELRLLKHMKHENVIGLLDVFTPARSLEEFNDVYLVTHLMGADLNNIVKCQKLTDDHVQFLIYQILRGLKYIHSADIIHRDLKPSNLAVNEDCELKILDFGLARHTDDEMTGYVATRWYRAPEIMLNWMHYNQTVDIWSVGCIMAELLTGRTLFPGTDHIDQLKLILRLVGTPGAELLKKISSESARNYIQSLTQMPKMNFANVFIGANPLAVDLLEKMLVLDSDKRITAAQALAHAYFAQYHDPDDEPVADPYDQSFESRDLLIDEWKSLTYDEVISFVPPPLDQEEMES
- runDescription: DSF thermal shift, kinase panel
- Type: binding
- runConditions: 10 μM compound

# smilesRepresentation, ΔTm at 10 µM, °C
records = [
    ("Cc1ccc(Nc2nsnc(Nc3ccc4c(c3)CS(=O)(=O)C4)c2=O)cc1O", 1),
    ("CNC(=O)c1ccccc1Nc1nsnc(Nc2cccc(CS(C)(=O)=O)c2)c1=O", -0.2),
    ("CNC(=O)c1ccccc1Nc1nsnc(Nc2ccc(N3CCOCC3)cc2)c1=O", -0.3),
    ("Cc1ccc(Nc2nsnc(Nc3cccc(C(N)=O)c3)c2=O)cc1O", 0),
    ("Cc1ccc(Nc2nsnc(Nc3ccc(C(N)=O)cc3)c2=O)cc1O", 0.6),
]

* * *

- testedSystem: DYRK1AA (Homo sapiens, UniProt Q13627)
- Construct: purchased in-house (home-made panel, SGC-style construct names)
- runDescription: DSF thermal shift, kinase panel
- Format: binding
- runConditions: 10 μM compound
- Experimental: The corresponding dianilino-TDZs (1–5) were tested on a panel of 46 protein kinases representing the major kinome branches at a concentration of 10 μM using a Differential Scanning Fluorimetry (DSF). […] Protein thermal shift data was measured in a qPCR instrument (Applied Biosystems QuantStudio 6) programmed to equilibrate the plate at 25 °C for 5 min followed by ramping the temperature to 95 °C at a rate of 0.05 °C/s. […]
quantity: ΔTm at 10 µM (°C)

# molecule, quantity, recordedValue
data = [
    ("CNC(=O)c1ccccc1Nc1nsnc(Nc2ccc(N3CCOCC3)cc2)c1=O [Compound 5]", "ΔTm at 10 µM", -0.8),
    ("Cc1ccc(Nc2nsnc(Nc3ccc(C(N)=O)cc3)c2=O)cc1O [Compound 2]", "ΔTm at 10 µM", 0.9),
    ("Cc1ccc(Nc2nsnc(Nc3cccc(C(N)=O)c3)c2=O)cc1O [Compound 1]", "ΔTm at 10 µM", -0.6),
    ("Cc1ccc(Nc2nsnc(Nc3ccc4c(c3)CS(=O)(=O)C4)c2=O)cc1O [Compound 3]", "ΔTm at 10 µM", -0.1),
    ("CNC(=O)c1ccccc1Nc1nsnc(Nc2cccc(CS(C)(=O)=O)c2)c1=O [Compound 4]", "ΔTm at 10 µM", -0.5),
]

These data points were gathered from paper PMC6019134.
